target: T1, human CD3 expressed on cells (Jurkat cells; human primary T cells) (human, UniProt P07766 23-207; P04234 22-171; P09693 23-182); experiment: flow cytometry, 25 nM, Jurkat cells
T1 construct: whole, on cells
T1 sequence (P07766 23-207, chain 1 of 3): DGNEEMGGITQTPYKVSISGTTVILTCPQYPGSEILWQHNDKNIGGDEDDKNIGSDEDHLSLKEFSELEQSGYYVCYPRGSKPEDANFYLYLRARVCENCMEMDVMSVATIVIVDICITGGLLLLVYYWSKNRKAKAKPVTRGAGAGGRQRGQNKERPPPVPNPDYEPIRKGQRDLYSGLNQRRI
T1 sequence (P04234 22-171, chain 2 of 3): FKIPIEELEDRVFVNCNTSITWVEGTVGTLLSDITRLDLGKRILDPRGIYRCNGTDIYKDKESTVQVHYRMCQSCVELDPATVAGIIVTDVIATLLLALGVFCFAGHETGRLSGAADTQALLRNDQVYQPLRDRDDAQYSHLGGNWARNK
T1 sequence (P09693 23-182, chain 3 of 3): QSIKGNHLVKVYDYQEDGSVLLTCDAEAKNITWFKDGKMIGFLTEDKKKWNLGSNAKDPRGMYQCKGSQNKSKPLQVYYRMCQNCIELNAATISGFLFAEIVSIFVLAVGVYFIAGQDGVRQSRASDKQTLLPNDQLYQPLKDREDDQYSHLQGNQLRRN
# Binding (FOI) per record follows

Field: example entries. Status: answers known.
QUERY: Field request: Binding (FOI) | item: mAb 194 (antibody, V domains shown, VH/VL only) VH: QEQLVESGGGVVQPGGSLRLSCAASGFIFSGYGMHWVRQAPGKGLEWVAIIWYNGRKTYYAESVKGRFTISRDNSKNTLSLQMNSLRVEDTAVYYCTAGQGYNWFDPWGQGTLVTVSS VL: EIVMTQSPATLSVSPGERATLSCRASQSVSSNLAWYQQKPGQAPRLLIYGASTRATGIPARFSGSGSGTEFTLTISSLQSEDFAVYYCQQFNAWPLTFGGGTKMEIK
RESULT: 199 FOI

QUERY: Looking for the measured Binding (FOI) of mAb 266 (antibody, V domains shown, VH/VL only) VH: QVQLQQSGPGLVKPSQTLSLTCAISGDSVSSNYASWNWIRQSPSRGLEWLGRTYYRSKWYIDFAVSVKSRLTINADTSKNQFSLHLRSVTPEDTAIYFCAREANGRGYFYYMDVWGKGTTVTVSS VL: EIVLTQSPDFQSVTPKEKVTITCRASQSIGSSLHWYQQKPDQSPKLLIKYASQSISGVPSRFSGSGSGTVFTLTINSLEAEDAAAYFCHQSSGSPHTFGGGTKVEIK , can you help?
RESULT: 85 FOI

Further cases:
QUERY: Query (binder): mAb 259 (antibody, V domains shown, VH/VL only) VH: EVLLLESGGGLVQPGGSLRLSCAASGFTFRSSSMTWVRQAPGKGLEWVSGIRGSGGRTYDAESVKGRFTISRDISKNTLYLQMNSVRAEDTAEYYCAKLYDYYNDYMDVWGKGTTVTVSS VL: SYELTQPLSVSVALGQTARITCGGNNIGSKNVHWYQQKPGQAPVLVIYRDSNRPSGIPERFSGSNSGNTATLTISRAQAGDEADYYCQVWDSSTAVFGGGTQLTAL ; field requested: Binding (FOI)
RESULT: 169 FOI

These data points were gathered from patent US20230295310A1.
